Just for reference, the supplement of paper PMC9112550 is where these values come from.

Test system: Escherichia coli TOP10
experiment-description: shrunken log2 fold change of peptide-encoding DNA abundance (4.5 h post-induction vs induction); higher = less antimicrobial activity (less host growth inhibition)
protocol-conditions: time post-induction: 4.5 h; library: site-saturation at positions 5, 18, 19, 20
parameter: shrunken log2 fold change
Just the number, please.

Examples with their reported shrunken log2 fold change follow.
input-sequence	shrunken log2 fold change
RRIRKRPPRLPRPRPRPGMCPRP	0.863
RRIRGRPPRLPRPRPRPPGCPRP	0.895
RRIRQRPPRLPRPRPRPFKHPRP	-0.244
RRIRNRPPRLPRPRPRPDINPRP	-0.482
RRIRCRPPRLPRPRPRPGECPRP	0.198

// returns reported shrunken log2 fold change for input `RRIRDRPPRLPRPRPRPRITPRP`
-0.138

Using the record for `RRIRYRPPRLPRPRPRPYPMPRP` , report its shrunken log2 fold change.
-0.744

---

Test system: Escherichia coli TOP10
experiment-description: shrunken log2 fold change of peptide-encoding DNA abundance (4.5 h post-induction vs induction); higher = less antimicrobial activity (less host growth inhibition)
protocol-conditions: time post-induction: 4.5 h; library: site-saturation at positions 5, 18, 19, 20
Classify as follows. Reported shrunken log2 fold change greater than or equal to -0.04: TRUE. Reported shrunken log2 fold change below: FALSE.

input-sequence	system-under-test	group-label
RRIRKRPPRLPRPRPRPRKPPRP	Escherichia coli TOP10	TRUE
RRIRVRPPRLPRPRPRPMIEPRP	Escherichia coli TOP10	FALSE
RRIRGRPPRLPRPRPRPIQSPRP	Escherichia coli TOP10	FALSE

Would you say `RRIRVRPPRLPRPRPRPEQWPRP` shows shrunken log2 fold change at minimum -0.04?
TRUE

---

Tested on: Escherichia coli TOP10
experiment-description: shrunken log2 fold change of peptide-encoding DNA abundance (4.5 h post-induction vs induction); higher = less antimicrobial activity (less host growth inhibition)
protocol-conditions: time post-induction: 4.5 h; library: site-saturation at positions 5, 18, 19, 20
parameter: shrunken log2 fold change
Please give the numeric answer without any surrounding text.

Worked examples follow.
input-sequence	shrunken log2 fold change
RRIRNRPPRLPRPRPRPRMLPRP	0.132
RRIRGRPPRLPRPRPRPQVKPRP	0.564
RRIRVRPPRLPRPRPRPNTYPRP	-0.71
RRIRGRPPRLPRPRPRPKNTPRP	0.232
RRIRRRPPRLPRPRPRPKPVPRP	0.191
RRIRNRPPRLPRPRPRPMNSPRP	-0.148
RRIRLRPPRLPRPRPRPEMGPRP	0.144

Consider the additional sequence presented here.
Given the entry `RRIRERPPRLPRPRPRPDCIPRP` , report its measured shrunken log2 fold change.
0.0113

---

Test system: Escherichia coli TOP10
experiment-description: shrunken log2 fold change of peptide-encoding DNA abundance (4.5 h post-induction vs induction); higher = less antimicrobial activity (less host growth inhibition)
protocol-conditions: time post-induction: 4.5 h; library: site-saturation at positions 5, 18, 19, 20
parameter: shrunken log2 fold change
Answer with a bare number; do not write a unit.

Requested read-out: shrunken log2 fold change. Entry: `RRIRQRPPRLPRPRPRPIYDPRP`
-0.213

Quick one: shrunken log2 fold change of `RRIRYRPPRLPRPRPRPTMRPRP` ?
0.243

Look at this sequence and give its reported shrunken log2 fold change. `RRIRLRPPRLPRPRPRPCRFPRP`
-0.226

---

Tested on: Escherichia coli TOP10
experiment-description: shrunken log2 fold change of peptide-encoding DNA abundance (4.5 h post-induction vs induction); higher = less antimicrobial activity (less host growth inhibition)
protocol-conditions: time post-induction: 4.5 h; library: site-saturation at positions 5, 18, 19, 20
Think of 0.03 as a floor: if shrunken log2 fold change stands on it or above, it is True; beneath it, False.

input-sequence	group-label
RRIRPRPPRLPRPRPRPDCCPRP	False
RRIRHRPPRLPRPRPRPQALPRP	False
RRIRFRPPRLPRPRPRPTQHPRP	True

Dear colleague, could you confirm whether `RRIRFRPPRLPRPRPRPASHPRP` has shrunken log2 fold change at or above 0.03?
True

Reported shrunken log2 fold change at or above 0.03? `RRIRARPPRLPRPRPRPWFDPRP`
False

Could you tell me if the measured shrunken log2 fold change of `RRIRERPPRLPRPRPRPRKAPRP` reaches 0.03 or more?
True

Could you tell me if the measured shrunken log2 fold change of `RRIRSRPPRLPRPRPRPDLEPRP` reaches 0.03 or more?
False

---

System: Escherichia coli TOP10
experiment-description: shrunken log2 fold change of peptide-encoding DNA abundance (4.5 h post-induction vs induction); higher = less antimicrobial activity (less host growth inhibition)
protocol-conditions: time post-induction: 4.5 h; library: site-saturation at positions 5, 18, 19, 20
I would appreciate it if you labelled entries met when shrunken log2 fold change is 0.02 or higher, otherwise not met.

Determine whether measured shrunken log2 fold change meets or exceeds 0.02 for `RRIRYRPPRLPRPRPRPHEKPRP`
not met

Decide: shrunken log2 fold change of `RRIRPRPPRLPRPRPRPGPSPRP` >= 0.02?
met

For this sequence, is measured shrunken log2 fold change 0.02 or higher? `RRIRCRPPRLPRPRPRPNTDPRP`
not met

---

System: Escherichia coli TOP10
experiment-description: shrunken log2 fold change of peptide-encoding DNA abundance (4.5 h post-induction vs induction); higher = less antimicrobial activity (less host growth inhibition)
protocol-conditions: time post-induction: 4.5 h; library: site-saturation at positions 5, 18, 19, 20
parameter: shrunken log2 fold change
Number, no unit, nothing else.

input-sequence	val
RRIRLRPPRLPRPRPRPFTVPRP	0.0023
RRIRNRPPRLPRPRPRPGNVPRP	-0.107
RRIRVRPPRLPRPRPRPTGGPRP	0.18
RRIRPRPPRLPRPRPRPFGEPRP	0.0159
RRIRRRPPRLPRPRPRPVHMPRP	2.19

Quick one: shrunken log2 fold change for `RRIRPRPPRLPRPRPRPDQDPRP` ?
0.0461

Would you mind telling me what shrunken log2 fold change value was observed for `RRIRSRPPRLPRPRPRPGAKPRP` ?
0.513

Recorded shrunken log2 fold change of `RRIRHRPPRLPRPRPRPDLEPRP` , please.
-0.00264

---

System: Escherichia coli TOP10
experiment-description: shrunken log2 fold change of peptide-encoding DNA abundance (4.5 h post-induction vs induction); higher = less antimicrobial activity (less host growth inhibition)
protocol-conditions: time post-induction: 4.5 h; library: site-saturation at positions 5, 18, 19, 20
Classify by measured shrunken log2 fold change: MET if it is equal to or exceeds -0.1, NOT MET if it is smaller.

input-sequence	system-under-test	group-label
RRIRQRPPRLPRPRPRPPYRPRP	Escherichia coli TOP10	MET
RRIRTRPPRLPRPRPRPNLTPRP	Escherichia coli TOP10	MET
RRIRRRPPRLPRPRPRPRYEPRP	Escherichia coli TOP10	MET
RRIRLRPPRLPRPRPRPWPTPRP	Escherichia coli TOP10	MET
RRIRRRPPRLPRPRPRPRATPRP	Escherichia coli TOP10	MET
RRIRRRPPRLPRPRPRPPMRPRP	Escherichia coli TOP10	MET
RRIRLRPPRLPRPRPRPIHDPRP	Escherichia coli TOP10	NOT MET
RRIRARPPRLPRPRPRPRRVPRP	Escherichia coli TOP10	MET

Determine whether measured shrunken log2 fold change meets or exceeds -0.1 for `RRIRKRPPRLPRPRPRPIIFPRP`
NOT MET

Does `RRIRVRPPRLPRPRPRPHHVPRP` have a reported shrunken log2 fold change of at least -0.1?
NOT MET

Test whether the sequence `RRIRVRPPRLPRPRPRPYEIPRP` records shrunken log2 fold change of -0.1 or higher.
NOT MET

---

Test system: Escherichia coli TOP10
experiment-description: shrunken log2 fold change of peptide-encoding DNA abundance (4.5 h post-induction vs induction); higher = less antimicrobial activity (less host growth inhibition)
protocol-conditions: time post-induction: 4.5 h; library: site-saturation at positions 5, 18, 19, 20
parameter: shrunken log2 fold change
Give the figure by itself; no unit, no explanation.

Examples with answers:
input-sequence	shrunken log2 fold change
RRIRQRPPRLPRPRPRPYLYPRP	-0.838
RRIRWRPPRLPRPRPRPSIRPRP	-0.613
RRIRYRPPRLPRPRPRPQTCPRP	-0.0146

// switching to the query sequence
Short answer please: shrunken log2 fold change, Escherichia coli TOP10, entry `RRIRPRPPRLPRPRPRPEMWPRP`
0.579

---

System: Escherichia coli TOP10
experiment-description: shrunken log2 fold change of peptide-encoding DNA abundance (4.5 h post-induction vs induction); higher = less antimicrobial activity (less host growth inhibition)
protocol-conditions: time post-induction: 4.5 h; library: site-saturation at positions 5, 18, 19, 20
parameter: shrunken log2 fold change
Hey, just send me the number, nothing else.

Reference set (4 entries):
input-sequence	shrunken log2 fold change
RRIRSRPPRLPRPRPRPCKDPRP	-0.153
RRIRCRPPRLPRPRPRPWHTPRP	-0.261
RRIRTRPPRLPRPRPRPEHIPRP	-0.223
RRIRMRPPRLPRPRPRPMKQPRP	0.0424

Escherichia coli TOP10 / shrunken log2 fold change / `RRIRPRPPRLPRPRPRPFGLPRP` : value?
-0.209

Query for Escherichia coli TOP10: what shrunken log2 fold change does the record show for `RRIRHRPPRLPRPRPRPNGSPRP` ?
-0.0827

What shrunken log2 fold change appears in the records for this sequence with Escherichia coli TOP10? `RRIRTRPPRLPRPRPRPIFEPRP`
-0.113

Kindly state the measured shrunken log2 fold change obtained for `RRIRERPPRLPRPRPRPPFGPRP` with Escherichia coli TOP10.
0.577

Request - read-out shrunken log2 fold change | tested on Escherichia coli TOP10 | sequence `RRIRVRPPRLPRPRPRPACMPRP`;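 note: peptides expressed intracellularly from a pBAD plasmid library in pooled LB shake-flask culture, induced with 0.3% L-arabinose, DNA abundance read by NGS, three biological replicates, DESeq2 with apeglm shrinkage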
-0.0781
